B1: TPR t1 (parent)
chain: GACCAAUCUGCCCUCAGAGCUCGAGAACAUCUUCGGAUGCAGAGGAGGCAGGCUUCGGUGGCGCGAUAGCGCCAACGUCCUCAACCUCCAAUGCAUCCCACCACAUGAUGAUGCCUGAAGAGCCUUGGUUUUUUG

Variants of: B1
Test: polymerase ribozyme fitness, log enrichment relative to wild type (log ratio); higher = more active; in vitro selection for triplet polymerase activity
# binarize polymerase ribozyme fitness (log ratio): threshold -4 inclusive, high side class 1, low side class 0

mutant id	cat
A37G A50C G57A G117C	class 0
U7G C49U C80U A111C	class 0
C3U C12A G60A	class 1
C13U C53A U92G C101U	class 1
G77U C79U U106C	class 1
U9C A68G C86A C99A	class 0
C3U G71U	class 1
G42A U87G	class 1
G71U C101A	class 1
U21C G69U C88U C94G C124U	class 1

Asked: Please check the record A5C U9C C86U A100U G135U and state if its polymerase ribozyme fitness (log ratio) is at or above -4.
Given back: class 1

Asked: Please check the record C102U U132A and state if its polymerase ribozyme fitness (log ratio) is at or above -4.
Given back: class 1

Asked: Please check the record U14G C123U and state if its polymerase ribozyme fitness (log ratio) is at or above -4.
Given back: class 1

Asked: Please check the record G113U U129G and state if its polymerase ribozyme fitness (log ratio) is at or above -4.
Given back: class 0

Asked: Please check the record U7A C8U G61U and state if its polymerase ribozyme fitness (log ratio) is at or above -4.
Given back: class 1

Asked: Please check the record C99U C115A and state if its polymerase ribozyme fitness (log ratio) is at or above -4.
Given back: class 1
